Where do these numbers come from? They come from patent US10703764B2.

# systemUnderTest: BRD4 BD2 (Homo sapiens)
# measurementNotes: AlphaScreen binding assay, BRD4 Bromodomain 2
pIC50: −log10 of the molar value.
This listing pairs molecules with measured pIC50.
recordedEndpoint: pIC50

> print(dat)
                                   molecule          systemundertest      observed
1  CC(=O)N1CCC[C@H](CN2C[C@H](C)N(C(C)=O)c3ccccc32)C1 [Example I-928]  BRD4 BD2 (Homo sapiens)        < 6.30
2  CC(=O)N1c2ccc(-c3ccc(S(C)(=O)=O)cc3)cc2N(C(=O)c2cc3ccc(Cl)cc3[nH]2)CC1C (stereo not shown) [Example I-787]  BRD4 BD2 (Homo sapiens)  6.30 to 7.30
3  CC(=O)N1c2ccc(-c3ccc(S(C)(=O)=O)cc3)cc2N(C(=O)Oc2cccc(C(F)(F)F)c2)C[C@@H]1C [Example I-237]  BRD4 BD2 (Homo sapiens)        > 7.30
4  COC(=O)N1c2ccc(-c3cnn(C4CC4)c3)cc2N(C(=O)Oc2cccnc2)C[C@@H]1C [Example I-1283]  BRD4 BD2 (Homo sapiens)  6.30 to 7.30
5  CC(=O)N1c2ccc(-c3cccc(-n4cccn4)c3)cc2N(C(=O)c2ccco2)C[C@@H]1C [Example I-853]  BRD4 BD2 (Homo sapiens)        > 7.30
6  CC(=O)N1c2ccc(-c3cnn(CC(F)F)c3)cc2N(C(=O)C2CC2)C[C@@H]1C [Example I-651]  BRD4 BD2 (Homo sapiens)  6.30 to 7.30
7  COc1ccc(F)cc1OC(=O)N1C[C@H](C)N(C(C)=O)c2ccc(-c3cnn(C4CC4)c3)cc21 [Example I-1201]  BRD4 BD2 (Homo sapiens)        > 7.30

---

This listing pairs molecules with measured pIC50.
# systemUnderTest: BRD4 BD2 (Homo sapiens, UniProt O60885)
# measurementNotes: AlphaScreen binding assay, BRD4 Bromodomain 2
pIC50: −log10 of the molar value.
recordedEndpoint: pIC50

> print(dat)
                                    molecule                          systemundertest      observed
 1  CCOC(=O)N1C[C@H](C)N(C(C)=O)c2ccc(-c3ccc(S(C)(=O)=O)cc3)cc21  BRD4 BD2 (Homo sapiens, UniProt O60885)  6.30 to 7.30
 2  CC(=O)N1c2ccc(-c3ccc(C(=O)N(C)C)cc3)cc2N(C(=O)c2ccco2)C[C@@H]1C  BRD4 BD2 (Homo sapiens, UniProt O60885)        > 7.30
 3  CC(=O)N1c2ccc(-c3ccc(N(C)S(C)(=O)=O)cc3)cc2N(C(=O)Oc2ccccn2)C[C@@H]1C  BRD4 BD2 (Homo sapiens, UniProt O60885)  6.30 to 7.30
 4  COC(=O)N1c2ccc(-c3cnn(CCn4ccnc4)c3)cc2N(C(=O)OC(C)C)C[C@@H]1C  BRD4 BD2 (Homo sapiens, UniProt O60885)  6.30 to 7.30
 5  CC(=O)N1c2ccc(-c3ccc(C(=O)N4CCNCC4)cc3)cc2N(C(=O)OC(C)C)C[C@@H]1C  BRD4 BD2 (Homo sapiens, UniProt O60885)  6.30 to 7.30
 6  CC(=O)N1c2ccc(-c3cnn(C4CCNCC4)c3)cc2N(C(=O)Oc2ccc(F)cc2F)C[C@@H]1C  BRD4 BD2 (Homo sapiens, UniProt O60885)        > 7.30
 7  CC(=O)N1c2ccccc2N(C(=O)c2cnc(C)cn2)C[C@@H]1C  BRD4 BD2 (Homo sapiens, UniProt O60885)        < 6.30
 8  CC(=O)N1c2ccc(-c3cnn(CC4CCOCC4)c3)cc2N(C(=O)C2CC2)C[C@@H]1C  BRD4 BD2 (Homo sapiens, UniProt O60885)  6.30 to 7.30
 9  CC(C)OC(=O)N1C[C@H](C)N(C(=O)C2CC2)c2ccc(-c3cnn(C4CCNCC4)c3)cc21  BRD4 BD2 (Homo sapiens, UniProt O60885)  6.30 to 7.30
10  CC(=O)N1c2ccc(-c3cnn(C4CCCS(=O)(=O)C4)c3)cc2N(C(=O)OC2CCCCC2)C[C@@H]1C (stereo partly drawn)  BRD4 BD2 (Homo sapiens, UniProt O60885)        > 7.30
11  CC(=O)N1c2ccc(-c3cnn(C4CC4)c3)cc2N(C(=O)OC2CCOCC2)C[C@@H]1C  BRD4 BD2 (Homo sapiens, UniProt O60885)  6.30 to 7.30
12   CC(=O)N1c2ccccc2N(C(=O)CC(C)C)C[C@@H]1C  BRD4 BD2 (Homo sapiens, UniProt O60885)        < 6.30
13  CC(=O)N1c2ccc(-c3ccc(S(=O)(=O)CCO)cc3)cc2N(C(=O)C2CC2)C[C@@H]1C  BRD4 BD2 (Homo sapiens, UniProt O60885)  6.30 to 7.30
14  CC(=O)N1c2ccc(-c3cnc(N(C)C)nc3)cc2N(C(=O)c2ccco2)C[C@@H]1C  BRD4 BD2 (Homo sapiens, UniProt O60885)        > 7.30
15  C[C@H]1CN(C(=O)C2CC2)c2cc(-c3ccc(S(=O)(=O)CCO)cc3)ccc2N1C(=O)C1CC1  BRD4 BD2 (Homo sapiens, UniProt O60885)  6.30 to 7.30
